- Tested on: SK-MEL-28 melanoma
- method: NCI-60 one-dose screen, 48 h
- runParameters: 10 µM unless noted
Compounds without any hit were thinned out: in the full panel of roughly 83,000, 20% have a hit. Active and inactive are the calls of the source. Rule for the calls: active = growth percent below 10; inactive = the rest.
Classes used: label 1 (active), label 0 (inactive)

| compound | group |
| --- | --- |
| NC(=O)c1c(Br)n(C2OC(CO)C(O)C2O)c2ncnc(N)c12 (stereo unspecified) | label 1 |
| O=NN1CCCc2cccc(O)c21 | label 0 |
| CS(=O)(=O)CCN1CC2CCCC(C2)C1 | label 0 |
| Cc1cc(N(CCCl)CCCl)ccc1C=Nc1cccnc1 | label 0 |
| CC12CCC(O)CC1=CCC1C2CCC2(C)C(O)CCC12 (stereo unspecified) | label 0 |
| COC(=O)[C@@H](C)C[C@H](Cc1ccccc1)NC(=O)c1csc([C@@H](C[C@H](C(C)C)N(C)C(=O)[C@H](C)NC(=O)[C@H]2CCCN2C)OC(C)=O)n1 | label 0 |
| CCn1nccc1NC(=O)C(=O)c1cn(Cc2ccc(F)cc2)c2cccc(OC)c12 | label 0 |
| CC1=C(CCCOC(=O)[C@H](N)CC(C)C)C2=C(C)C3(CC3)[C@@](C)(O)C(=O)C2=C1 | label 0 |
| CC[S][Hg][Cl] | label 0 |
| CC(=O)[O][Hg][O]C(C)=O | label 0 |
| O=C(O)C(O)C(O)C1[O][Sb]([c]2ccc([N+](=O)[O-])cc2)[O]C1CO (stereo unspecified) | label 0 |
